assay type: in vivo, human; conditions: victim serum, UPLC-Q Exactive MS/MS
Quantity Name: Detection in the clinical blood sample

                                   molecule          value_observed
0  C=C[C@]12CN(C)[C@@H]3[C@H]4CO[C@H](C[C@H]41)[C@]1(C(=O)Nc4ccccc41)[C@@H]32 [Compound 24, gelsemine]  could also be detected
1  CCC1=N[C@H]2C[C@@]3(C(=O)N(OC)c4ccccc43)[C@H]3C[C@@H]1[C@@H]2CO3 [Compound 1, gelsenicine]        clearly detected
2  C=C[C@@]12CN(C)[C@H]3C[C@]14C(=Nc1ccccc14)[C@@H]1C[C@@H]2[C@@H]3CO1 [Compound 32, koumine]  could also be detected
3  C/C=C1\CN(C)[C@H]2C[C@@]3(C(=O)N(OC)c4ccccc43)[C@H]3C[C@@H]1[C@@H]2CO3 [Compound 17, humantenine]        clearly detected

---

experiment: Acute toxicity of pure Gelsemium alkaloids in mice; conditions: both, Kunming, mouse, in vivo, ip, 30 mg/kg
Listing: LD50 at 7 days of selected compounds
Quantity Name: LD50 at 7 days

                                   compound   quantity_name  value_observed
0  C/C=C1\CN(C)[C@H]2C[C@@]3(C(=O)N(OC)c4ccccc43)[C@H]3C[C@@H]1[C@@H]2CO3 [Compound 17, humantenine]  LD50 at 7 days      7.11 mg/kg
1  C=C[C@@]12CN(C)[C@H]3C[C@]14C(=Nc1ccccc14)[C@@H]1C[C@@H]2[C@@H]3CO1 [Compound 32, koumine]  LD50 at 7 days      > 30 mg/kg
2  CCC1=N[C@H]2C[C@@]3(C(=O)N(OC)c4ccccc43)[C@H]3C[C@@H]1[C@@H]2CO3 [Compound 1, gelsenicine]  LD50 at 7 days      0.14 mg/kg
